Entries and their IC50
# study.system: Beta-secretase 1 (Homo sapiens, UniProt P56817)
# Sequence (P56817 whole entry): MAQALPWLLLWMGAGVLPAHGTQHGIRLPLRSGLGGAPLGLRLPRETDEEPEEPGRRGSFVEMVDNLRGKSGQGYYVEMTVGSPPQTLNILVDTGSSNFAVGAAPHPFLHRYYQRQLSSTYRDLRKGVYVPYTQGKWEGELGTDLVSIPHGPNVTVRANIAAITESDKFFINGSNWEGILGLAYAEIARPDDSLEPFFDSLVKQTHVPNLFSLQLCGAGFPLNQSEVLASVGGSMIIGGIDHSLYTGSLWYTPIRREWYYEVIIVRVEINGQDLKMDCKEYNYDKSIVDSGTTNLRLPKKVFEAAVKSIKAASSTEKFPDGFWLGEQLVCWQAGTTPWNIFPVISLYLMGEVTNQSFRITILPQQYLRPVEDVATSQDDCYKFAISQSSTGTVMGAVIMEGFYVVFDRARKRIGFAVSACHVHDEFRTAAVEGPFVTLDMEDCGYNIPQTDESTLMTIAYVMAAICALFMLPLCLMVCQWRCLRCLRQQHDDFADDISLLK
# measurement.description: Inhibition of BACE1 by HPLC method
Respond numerically; units are nM and should not be typed.

{"compound": "CCC[C@@H](O)[C@H]1CCN([C@@H](C)C(=O)N[C@@H](Cc2cc(F)cc(F)c2)[C@H](O)[C@H]2C[C@H](O)CN2)C1=O", "measurement.units": "nM", "IC50": 40}
{"compound": "CCC(C)[C@@]1(NC(C)=O)CCN([C@@H](CCc2ccccc2)C(=O)N[C@@H](Cc2cc(F)cc(F)c2)[C@H](O)[C@H]2C[C@@H](Oc3ccccc3)CN2)C1=O (stereo partly drawn)", "measurement.units": "nM", "IC50": 2.6}
{"compound": "CCC(C)[C@@]1(NC(C)=O)CCN([C@@H](CCc2ccccc2)C(=O)N[C@@H](Cc2cc(F)cc(F)c2)[C@H](O)[C@H]2C[C@@H](OCc3cccc(C(F)(F)F)c3)CN2)C1=O (stereo partly drawn)", "measurement.units": "nM", "IC50": 2.7}
{"compound": "COc1cccc(CNC[C@@H](O)[C@H](Cc2cc(F)cc(F)c2)NC(=O)[C@H](CCc2ccccc2)N2CC[C@@](CC3CC3)(NC(C)=O)C2=O)c1", "measurement.units": "nM", "IC50": 11}
{"compound": "CCCC[C@H]1CCN([C@@H](CCc2ccccc2)C(=O)N[C@@H](Cc2cc(F)cc(F)c2)[C@H](O)[C@H]2C[C@@H](OCCC)CN2)C1=O", "measurement.units": "nM", "IC50": 19}

# evaluate next
## Input Suppose we examine the compound CCC(C)[C@@]1(NC(C)=O)CCN([C@@H](CCc2ccccc2)C(=O)N[C@@H](Cc2cc(F)cc(F)c2)[C@H](O)[C@H]2C[C@@H](OCc3cccnc3)CN2)C1=O (stereo partly drawn) ; what IC50 value has been reported?
## Output 1.4
